- assayed.system: T1, Gal4 transcriptional activation domain (AD) fused in frame with AR (yeast, UniProt P10275 1-920, limits assumed); further: unit not given here
- T1 sequence (looked up): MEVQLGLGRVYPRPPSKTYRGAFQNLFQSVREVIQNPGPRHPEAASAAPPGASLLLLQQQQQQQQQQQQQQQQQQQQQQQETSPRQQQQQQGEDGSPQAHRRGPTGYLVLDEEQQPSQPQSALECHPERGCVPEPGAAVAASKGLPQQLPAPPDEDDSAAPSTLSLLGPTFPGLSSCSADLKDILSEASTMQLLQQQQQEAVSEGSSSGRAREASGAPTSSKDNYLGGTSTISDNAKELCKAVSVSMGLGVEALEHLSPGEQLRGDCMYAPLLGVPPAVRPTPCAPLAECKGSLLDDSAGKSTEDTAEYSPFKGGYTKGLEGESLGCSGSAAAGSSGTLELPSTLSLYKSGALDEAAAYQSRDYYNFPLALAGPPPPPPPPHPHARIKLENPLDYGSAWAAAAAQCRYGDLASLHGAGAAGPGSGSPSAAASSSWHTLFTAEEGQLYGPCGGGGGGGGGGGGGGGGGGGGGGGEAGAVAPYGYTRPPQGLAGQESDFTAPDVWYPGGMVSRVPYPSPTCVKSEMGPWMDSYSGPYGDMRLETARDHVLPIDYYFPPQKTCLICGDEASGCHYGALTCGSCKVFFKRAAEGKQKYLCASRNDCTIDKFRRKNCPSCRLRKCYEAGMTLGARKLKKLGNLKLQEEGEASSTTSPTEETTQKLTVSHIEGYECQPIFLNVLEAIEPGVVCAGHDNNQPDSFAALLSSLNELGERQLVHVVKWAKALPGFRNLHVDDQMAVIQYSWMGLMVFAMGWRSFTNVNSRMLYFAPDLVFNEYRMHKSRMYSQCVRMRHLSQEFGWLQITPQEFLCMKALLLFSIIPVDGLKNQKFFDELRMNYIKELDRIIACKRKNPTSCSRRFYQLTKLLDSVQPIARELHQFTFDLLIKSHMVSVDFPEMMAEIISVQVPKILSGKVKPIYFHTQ
- procedure.details: cell-based or functional assay
experimental.endpoint: β-galactosidase activity (yeast two-hybrid), No Lig
Give your answer as a number; write no unit.

| binder | observed.result |
| --- | --- |
| B22F6 (peptide) MKLLSSIEQACDICRLKKLKCSKEKPKCAKCLKNNWECRYSPKTKRSPLTRAHLTEVESRLERLEQLFLLIFPREDLDMILKMDSLQDIKALLTGLFVQDNVNKDAVTDRLASVETDMPLTLRQHRISATSSSEESSNKGQRQLTVSEFLSGLEMEVVLWHYGRLDLQPS | 0.794 |

Prompt line: Fill in: β-galactosidase activity (yeast two-hybrid), No Lig of M7B1 (peptide) MKLLSSIEQACDICRLKKLKCSKEKPKCAKCLKNNWECRYSPKTKRSPLTRAHLTEVESRLERLEQLFLLIFPREDLDMILKMDSLQDIKALLTGLFVQDNVNKDAVTDRLASVETDMPLTLRQHRISATSSSEESSNKGQRQLTVSEFVGWFTGMAACSYAPDLDLQPS is ___
Response line: 0

Prompt line: So what's the measured β-galactosidase activity (yeast two-hybrid), No Lig for this one? B18C4 (peptide) MKLLSSIEQACDICRLKKLKCSKEKPKCAKCLKNNWECRYSPKTKRSPLTRAHLTEVESRLERLEQLFLLIFPREDLDMILKMDSLQDIKALLTGLFVQDNVNKDAVTDRLASVETDMPLTLRQHRISATSSSEESSNKGQRQLTVSEFDSPWVWFGGEPGLNLLDLQPS
Response line: 1.12
